conditions: 308.15 K; 29490 kPa; Liquid; Vibrating tube method
value-type: mass density (kg/m3)

[
  {
    "smiles-string": "Cc1cccnc1",
    "mass density, kg/m3": 961.5
  },
  {
    "smiles-string": "c1ccncc1",
    "mass density, kg/m3": 987.2
  },
  {
    "smiles-string": "Cc1ccncc1",
    "mass density, kg/m3": 959.3
  },
  {
    "smiles-string": "Cc1ccccn1",
    "mass density, kg/m3": 950.1
  }
]

====

conditions: 308.15 K; 24420 kPa; Liquid; Vibrating tube method
value-type: mass density (kg/m3)

[
  {
    "smiles-string": "Cc1ccncc1",
    "units-text": "kg/m3",
    "mass density": 956.4
  },
  {
    "smiles-string": "Cc1cccnc1",
    "units-text": "kg/m3",
    "mass density": 958.5
  },
  {
    "smiles-string": "c1ccncc1",
    "units-text": "kg/m3",
    "mass density": 984.1
  },
  {
    "smiles-string": "Cc1ccccn1",
    "units-text": "kg/m3",
    "mass density": 947
  }
]

====

conditions: 308.15 K; 38600 kPa; Liquid; Vibrating tube method
value-type: mass density (kg/m3)

[
  {
    "smiles-string": "c1ccncc1",
    "units-text": "kg/m3",
    "mass density": 992.6
  },
  {
    "smiles-string": "Cc1cccnc1",
    "units-text": "kg/m3",
    "mass density": 966.5
  },
  {
    "smiles-string": "Cc1ccncc1",
    "units-text": "kg/m3",
    "mass density": 964.4
  },
  {
    "smiles-string": "Cc1ccccn1",
    "units-text": "kg/m3",
    "mass density": 955.5
  }
]

====

settings: 308.15 K; 26450 kPa; Liquid; Vibrating tube method
value-type: mass density (kg/m3)

[
  {
    "smiles-string": "Cc1ccccn1",
    "units-text": "kg/m3",
    "test-value": 948.3
  },
  {
    "smiles-string": "c1ccncc1",
    "units-text": "kg/m3",
    "test-value": 985.4
  },
  {
    "smiles-string": "Cc1cccnc1",
    "units-text": "kg/m3",
    "test-value": 959.7
  },
  {
    "smiles-string": "Cc1ccncc1",
    "units-text": "kg/m3",
    "test-value": 957.6
  }
]

====

conditions: 308.15 K; 34550 kPa; Liquid; Vibrating tube method
value-type: mass density (kg/m3)

[
  {
    "smiles-string": "Cc1ccccn1",
    "mass density (kg/m3)": 953.2
  },
  {
    "smiles-string": "Cc1ccncc1",
    "mass density (kg/m3)": 962.2
  },
  {
    "smiles-string": "c1ccncc1",
    "mass density (kg/m3)": 990.3
  },
  {
    "smiles-string": "Cc1cccnc1",
    "mass density (kg/m3)": 964.3
  }
]

====

conditions: 328.15 K; 6180 kPa; Liquid; Vibrating tube method
value-type: mass density (kg/m3)

[
  {
    "compound": "c1ccncc1 [pyridine]",
    "mass density [kg/m3]": 952.3
  },
  {
    "compound": "Cc1cccnc1 [3-methylpyridine]",
    "mass density [kg/m3]": 929.2
  },
  {
    "compound": "Cc1ccncc1 [4-methylpyridine]",
    "mass density [kg/m3]": 927.3
  }
]
